system: multi-drug resistant (MDR) lung carcinoma cell line H69/LX4; assay: cells; details: Homo sapiens, read-out: IC 50 H69/Lx4 VB 25 ng/ml
parameter_measured: IC50 (µg/mL)
Please reply with the bare figure in µg/mL and do not write the unit itself.

The cases that follow already have their IC50 on record.
molecule: CC1(C)CC(N=c2cc3n(-c4ccc(OC(F)(F)F)cc4)c4ccccc4nc-3cc2Nc2ccc(OC(F)(F)F)cc2)CC(C)(C)N1
parameter_measured: IC50
test_result: 0.056
//
molecule: CC(C)c1ccc(Nc2cc3nc4cc(Cl)ccc4n(-c4ccc(C(C)C)cc4)c-3cc2=NC2CC(C)(C)NC(C)(C)C2)cc1
parameter_measured: IC50
test_result: 0.268

Turning now to a further molecule:
Measured IC50, CC1(C)CC(N=c2cc3n(-c4ccc(Cl)c(Cl)c4)c4ccccc4nc-3cc2Nc2ccc(Cl)c(Cl)c2)CC(C)(C)N1 [Compound B4100, reference compound] : 0.125
